The reported measurements were obtained from PubChem BioAssay.

assay remarks: HCT116 colon cancer cell growth inhibition, primary screen, CellTiter-Glo luminescence, NPC library (AID 1117342)
experimental context: at 20 µM (top of the series)
Calls of active or inactive are those of the source.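 Rule for the calls: active = compounds that lower survival of HCT116 colon cancer cells in the luminescence readout, no numeric limit stated; inactive = the rest.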
Possible outcomes: active, inactive

- compound: "CCOC(=O)CN1CCCC1=O"
  label value: "active"
- compound: "c1ccc2sc(SSc3nc4ccccc4s3)nc2c1"
  label value: "inactive"
- compound: "Cc1cccc(Nc2ccncc2S(=O)(=O)NC(=O)NC(C)C)c1"
  label value: "inactive"
- compound: "O=C(O)Cc1cn(-c2ccccc2)nc1-c1ccc(Cl)cc1"
  label value: "inactive"
- compound: "O=C(OCC1(COC(=O)c2cccnc2)CCCC(COC(=O)c2cccnc2)(COC(=O)c2cccnc2)C1O)c1cccnc1"
  label value: "inactive"
- compound: "OC1(c2ccccc2)CCNCC1"
  label value: "inactive"
- compound: "CC(C)(C)c1nnc(NS(=O)(=O)c2ccc(N)cc2)s1"
  label value: "inactive"
- compound: "COC(=O)c1nc(Cl)c(Cl)nc1N"
  label value: "active"
- compound: "O=C(O)Cc1ccc2c(c1)C(=O)c1ccccc1CO2"
  label value: "inactive"
- compound: "CC(C)CCCC(C)CCCC(C)CCCCC(C)CCCC(C)CCCC(C)C (stereo not drawn)"
  label value: "inactive"
- compound: "CCCCCCCCCCCCCCCC[N+](C)(C)CC"
  label value: "active"
- compound: "CNc1c2c(nn1C)CCCC2"
  label value: "inactive"
- compound: "CC(C)[C@H](N)C(=O)O"
  label value: "inactive"

----------
Test system: F380Y/beta2Delta
assay remarks: modulators of BK channel variants, profiling panel, selectivity assay, cell-based, U2OS BacMam, thallium flux, beta subunits (AID 1259406);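 note: initial slope of Thallos dye fluorescence rise after thallium is added; log ratio against the mean of 0.3% DMSO vehicle wells on the same plate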
experimental context: at 30 µM

- compound: "c1ccc(CC2=NCCN2)cc1"
  log fold change Tl+ flux: -0.0174
- compound: "CC(=O)O[C@]1(C(C)=O)CC[C@H]2[C@@H]3C=C(C)C4=CC(=O)CC[C@]4(C)[C@H]3CC[C@@]21C"
  log fold change Tl+ flux: 0.0101
- compound: "CCC(C)(C)C(=O)O[C@H]1C[C@@H](C)C=C2C=C[C@H](C)[C@H](CC[C@@H]3C[C@@H](O)CC(=O)O3)[C@H]21"
  log fold change Tl+ flux: 0.0908
- compound: "CC(C)NCC(O)c1cc(O)cc(O)c1 (centres undefined)"
  log fold change Tl+ flux: 0.0418
- compound: "C[C@H](CCC(=O)O)[C@H]1CC[C@H]2[C@@H]3C(=O)C[C@@H]4CC(=O)CC[C@]4(C)[C@H]3CC(=O)[C@]12C"
  log fold change Tl+ flux: 0.00244
- compound: "CC(=O)OCC(=O)[C@@]1(O)CC[C@H]2[C@@H]3CCC4=CC(=O)C=C[C@]4(C)[C@H]3[C@@H](O)C[C@@]21C"
  log fold change Tl+ flux: -0.0297
- compound: "CN(C)C(=O)Oc1ccc[n+](C)c1"
  log fold change Tl+ flux: -0.0385
- compound: "CC(C[N+](C)(C)C)OC(N)=O (centres undefined)"
  log fold change Tl+ flux: -0.0155
- compound: "NCc1ccc(S(N)(=O)=O)cc1"
  log fold change Tl+ flux: -0.0418
- compound: "O=C(C1CCCCC1)N1CC(=O)N2CCc3ccccc3C2C1 (centres undefined)"
  log fold change Tl+ flux: 0.0335
- compound: "c1ccc2c(CC3=NCCN3)cccc2c1"
  log fold change Tl+ flux: -0.014
- compound: "O=c1n(CCCN2CCN(c3cccc(Cl)c3)CC2)nc2ccccn12"
  log fold change Tl+ flux: 0.035
- compound: "Cc1cccc(CN2CCN(C(c3ccccc3)c3ccc(Cl)cc3)CC2)c1 (centres undefined)"
  log fold change Tl+ flux: 0.0401
- compound: "CC(C)(C)NCC(O)COc1cccc2c1C[C@H](O)[C@H](O)C2 (some centres undefined)"
  log fold change Tl+ flux: 0.0306
- compound: "COc1ccc2cc(CCC(C)=O)ccc2c1"
  log fold change Tl+ flux: -0.0818
- compound: "NS(=O)(=O)c1cc2c(cc1C(F)(F)F)NC(Cc1ccccc1)NS2(=O)=O (centres undefined)"
  log fold change Tl+ flux: 0.0485
- compound: "Cc1ccc(C)c(OCCCC(C)(C)C(=O)O)c1"
  log fold change Tl+ flux: 0.0499
- compound: "Cn1c(=O)c2[nH]cnc2n(C)c1=O"
  log fold change Tl+ flux: -0.0514
- compound: "CN(C)CCC[C@@]1(c2ccc(F)cc2)OCc2cc(C#N)ccc21"
  log fold change Tl+ flux: 0.0188
- compound: "COc1ccccc1OCC(O)COC(N)=O (centres undefined)"
  log fold change Tl+ flux: -0.0478
- compound: "OCCN1C[C@H](O)[C@@H](O)[C@H](O)[C@H]1CO"
  log fold change Tl+ flux: -0.0041
- compound: "O=C1c2c(O)ccc(O)c2C(=O)c2c(NCCNCCO)ccc(NCCNCCO)c21"
  log fold change Tl+ flux: 0.00615
- compound: "CC1Cc2ccccc2N1NC(=O)c1ccc(Cl)c(S(N)(=O)=O)c1 (centres undefined)"
  log fold change Tl+ flux: 0.049
- compound: "CCCCNc1cc(C(=O)O)cc(S(N)(=O)=O)c1Oc1ccccc1"
  log fold change Tl+ flux: -0.0452
- compound: "CC(=O)OCC(=O)[C@@]1(O)CC[C@H]2[C@@H]3CCC4=CC(=O)CC[C@]4(C)[C@H]3C(=O)C[C@@]21C"
  log fold change Tl+ flux: -0.0255
- compound: "COc1cc2nc(N(C)CCCNC(=O)C3CCCO3)nc(N)c2cc1OC (centres undefined)"
  log fold change Tl+ flux: 0.0311
- compound: "CC(=O)[C@H]1CC[C@H]2[C@@H]3C[C@H](C)C4=CC(=O)CC[C@]4(C)[C@H]3[C@@H](O)C[C@]12C"
  log fold change Tl+ flux: -0.0669
- compound: "NC(=O)N1c2ccccc2CC(=O)c2ccccc21"
  log fold change Tl+ flux: -0.0162
- compound: "CN(C)CCOC(C)(c1ccccc1)c1ccccn1 (centres undefined)"
  log fold change Tl+ flux: -0.0218
- compound: "NC(N)=NC(=O)c1nc(Cl)c(N)nc1N"
  log fold change Tl+ flux: -0.0347
- compound: "CCN(CC)CCNC(=O)c1ccc(N)cc1"
  log fold change Tl+ flux: 0.0202
- compound: "CNCCCC12CCC(c3ccccc31)c1ccccc12"
  log fold change Tl+ flux: 0.203
- compound: "CCCN1C[C@H](CSC)C[C@@H]2c3cccc4[nH]cc(c34)C[C@H]21"
  log fold change Tl+ flux: 0.0229
- compound: "CC1=C(/C=C/C(C)=C/C=C/C(C)=C/C(=O)O)C(C)(C)CCC1"
  log fold change Tl+ flux: -0.0201
- compound: "CC(CN1c2ccccc2Sc2ccccc21)N(C)C (centres undefined)"
  log fold change Tl+ flux: 0.393
- compound: "Cc1ccc(S(=O)(=O)NC(=O)NN2CCCCCC2)cc1"
  log fold change Tl+ flux: -0.0238
- compound: "NS(=O)(=O)c1cc(C2(O)NC(=O)c3ccccc32)ccc1Cl (centres undefined)"
  log fold change Tl+ flux: -0.039
- compound: "C=C(CC)C(=O)c1ccc(OCC(=O)O)c(Cl)c1Cl"
  log fold change Tl+ flux: -0.0325
- compound: "Nc1nc2ncc(CNc3ccc(C(=O)N[C@@H](CCC(=O)O)C(=O)O)cc3)nc2c(=O)[nH]1"
  log fold change Tl+ flux: -0.000783
- compound: "CO[C@@]1(NC(=O)Cc2cccs2)C(=O)N2C(C(=O)O)=C(COC(N)=O)CS[C@@H]21"
  log fold change Tl+ flux: -0.00432
- compound: "CCC(=O)O[C@]1(C(=O)CCl)[C@@H](C)C[C@H]2[C@@H]3CCC4=CC(=O)C=C[C@]4(C)[C@@]3(F)[C@@H](O)C[C@@]21C"
  log fold change Tl+ flux: 0.293
- compound: "CCN(Cc1ccncc1)C(=O)C(CO)c1ccccc1 (centres undefined)"
  log fold change Tl+ flux: -0.0245
- compound: "CC12CC3CC(C)(C1)CC(N)(C3)C2"
  log fold change Tl+ flux: 0.0288
- compound: "Nc1nc2c(ncn2COCCO)c(=O)[nH]1"
  log fold change Tl+ flux: 0.0127

----------
assay remarks: HCT116 colon cancer cell growth inhibition, primary screen, CellTiter-Glo luminescence, NPC library (AID 1117342)
experimental context: at 20 µM (top of the series)
reported endpoint: inhibition of viability (%)

- molecule: "CCOCCOC(=O)/C=C/c1ccc(OC)cc1"
  readout unit: "%"
  reported result: -4.53
- molecule: "O=C(/C=C/c1ccccc1)OCc1ccccc1"
  readout unit: "%"
  reported result: 5.05
- molecule: "CC(=O)/C=C/C=C1/C2CCC(C2)C1(C)C (configuration not stated)"
  readout unit: "%"
  reported result: -1.1
- molecule: "Oc1ccccc1"
  readout unit: "%"
  reported result: -11.1
- molecule: "CCCCCCCCCCCC[N+](C)(C)Cc1ccccc1"
  readout unit: "%"
  reported result: 99.6
- molecule: "COC(=O)c1ccc(NC(C)=O)cc1OC"
  readout unit: "%"
  reported result: 1.7
- molecule: "Cc1cc(=O)oc2cc(O[C@@H]3SC[C@@H](O)[C@H](O)[C@H]3O)ccc12"
  readout unit: "%"
  reported result: -1.1
- molecule: "N[C@H](C(=O)O)[C@@H](O)c1ccc(O)c(O)c1"
  readout unit: "%"
  reported result: 6.7
- molecule: "Oc1ccc(CCNCCCCCCNCCc2ccccc2)cc1O"
  readout unit: "%"
  reported result: 83.5
- molecule: "COc1ccc(CC2c3cc(OC)c(OC)cc3CCN2CCC(=O)OCCCCCOC(=O)CCN2CCc3cc(OC)c(OC)cc3C2Cc2ccc(OC)c(OC)c2)cc1OC (configuration not stated)"
  readout unit: "%"
  reported result: -6.4
- molecule: "CCN(CC)CC(=O)Nc1c(C)cccc1C(=O)OC"
  readout unit: "%"
  reported result: -7.9
- molecule: "CCCSS/C(CCO)=C(\\C)N(C=O)Cc1cnc(C)nc1N"
  readout unit: "%"
  reported result: 19.1
